Conditions: buffer; pH 7.4; 6.0 h; 150.0 µM
property_measured: solubility kinetic

Dear colleague, I am looking for the recorded solubility kinetic of the following molecule: NC(=O)C1CCN(c2nc(-c3ccc(OCc4ccccc4)cc3)cs2)CC1
< 1 µg/mL

So what does the record say about solubility kinetic for CCOc1ccc(CCNC(=O)c2ccnn2Cc2ccccn2)cc1OCC ?
> 58 µg/mL

If you can, please state the reported solubility kinetic value of CN(C)c1cc(-c2nc(Nc3ccc(F)c(F)c3)c3ccccc3n2)ccn1 .
< 1 µg/mL

Look up solubility kinetic: CCC(=O)N1CCN(c2ccc(-n3c(=O)ccc4cnc5ccc(-c6cnc7ccccc7c6)cc5c43)cc2C(F)(F)F)CC1
< 1 µg/mL

Value lookup for solubility kinetic; key = CN(C)c1ccc(CN2CCNc3cc(Nc4ccccc4)ncc3C2)cc1
> 83 µg/mL

Any idea what solubility kinetic was measured for CN(C)CCOc1ccc(/C(=C(/CCCl)c2ccccc2)c2ccccc2)cc1 ?
< 1 µg/mL

For the molecule C#CC1(O)CCC2C3CCC4=C/C(=N/OCC(=O)NCC(=O)NC(C(=O)O)C(C)C)CC[C@]4(C)C3CC[C@@]21C (some centres not stated) , what solubility kinetic is on record?
> 80 µg/mL

Look at this molecule and give its reported solubility kinetic. O=C(Nc1nc(-c2ccc(Cl)s2)cs1)c1cccs1
< 1 µg/mL

Could you share which solubility kinetic value was measured for CC(C)(C)c1ccc(C(=O)Nc2cn3cc(-n4ccnc4)ccc3n2)cc1 ?
< 1 µg/mL

Which solubility kinetic value belongs to O=C(Nc1ncc(Cc2ccc(C(F)(F)F)cc2)s1)c1ccc(-c2ccccc2)o1 ?
< 1 µg/mL

Returns the measured solubility kinetic for the input molecule. Input: Brc1ccc(-c2csc(N3CCC(c4nn[nH]n4)CC3)n2)cc1
> 58 µg/mL

Using the record for NC(=O)N1CCCC(C(=O)N2CCCN(c3ccc(F)cc3)CC2)C1 (configuration not stated) , report its solubility kinetic.
> 51 µg/mL

====

Details: buffer; pH 7.4; 6.0 h; 150.0 µM
property_measured: solubility kinetic

Answered examples (5):
COc1ccc(NC(=O)c2c(C)cccc2C)cc1[S+](=O)([O-])N(C)C: 32.8 µg/mL
C=CC(=O)N1CCCN(c2cc(NCCC(=O)O)nc(-c3ccccn3)n2)CC1: > 59 µg/mL
CN1C(=O)CN=C(c2ccccc2Cl)c2cc(Cl)ccc21: > 47 µg/mL
O=[S+]([O-])(Nc1ccc(C2CCNCC2)cc1)c1ccc(NCc2ccc(Br)cc2O)cc1: 12.8 µg/mL
CC1=C(C(=O)Nc2ccccc2Cl)C(c2ccccc2Br)N=C(Nc2nc3ccccc3o2)N1 (stereo not given): < 1 µg/mL

Could you now consider this next molecule?
// query solubility kinetic value for entry N#Cc1ccc(C(=O)Nc2ccc(Cl)c(-c3nc4cc(Cl)ccc4o3)c2)c(F)c1
< 1 µg/mL

====

Conditions: buffer; pH 7.4; 6.0 h; 150.0 µM
property_measured: solubility kinetic

Solved entries:
O=[S+]([O-])(Nc1ccc(-c2ccccc2)cc1)c1ccc(NCc2ccc(Cl)cc2O)cc1: < 1 µg/mL
CCN1C(=O)c2ccccc2S(=O)c2ccc(NC(=O)Cc3ccc(F)cc3)cc21 (stereo not given): < 1 µg/mL
O=C1/C(=C\c2ccccc2)C[C@@]2(O)C3Cc4ccc(O)c5c4[C@@]2(CCN3CC2CC2)[C@H]1O5: > 42 µg/mL
Cc1cc(-c2nnc3n2CCCCC3)c(C)n1-c1cccc(C#N)c1: > 49 µg/mL
CCO.Nc1nc(N)c2cc(Sc3ccc4ccccc4c3)ccc2n1: < 1 µg/mL

Any idea what solubility kinetic was measured for N#Cc1ccc(NS(=O)(=O)c2ccc(NC(=O)Cc3ccc(F)c(Cl)c3)cc2)cc1 ?
< 1 µg/mL
